Where do the numbers come from? From paper PMC10397247.

Target: T1, 4H754-bA
T1 chain: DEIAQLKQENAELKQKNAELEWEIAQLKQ
Assay: two-hybrid library CCNG1;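 further: natural log of median RNA to DNA barcode read ratio; higher means stronger binding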
Each record here notes measured interaction score.
Write the value as a bare number.

Exercise: Tell me the measured interaction score of DEIAQLEQKNAELKQEIAELEWKIAQLKQ [4H454-bA] , please.
Key: -0.711
